Target: T1, human FSTL1 (construct not stated) (human, UniProt Q12841 21-308)
T1 construct: also called human FSTL1 antigen; FSTL1 (R&D Systems, Inc. Cat#1694-FN-050)
T1 sequence: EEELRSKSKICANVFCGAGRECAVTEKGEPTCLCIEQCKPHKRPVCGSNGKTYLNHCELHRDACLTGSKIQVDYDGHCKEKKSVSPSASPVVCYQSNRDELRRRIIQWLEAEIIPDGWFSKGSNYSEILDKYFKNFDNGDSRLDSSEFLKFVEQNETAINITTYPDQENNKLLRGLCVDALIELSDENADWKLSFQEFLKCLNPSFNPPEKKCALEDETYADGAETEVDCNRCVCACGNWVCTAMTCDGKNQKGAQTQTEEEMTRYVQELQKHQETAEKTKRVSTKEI
Assay: SPR (Biacore T-200), captured antibody, human FSTL1 10 µg/ml; note: time not given here
measured attribute: Dissociation amount (RU)

>>> assay_result("anti-FSTL1 antibody clone #5-2 (chicken-mouse chimeric antibody) (antibody, mouse IgG1, kappa, V domains shown) VH: AVTLDESGGGLQTPGGGLSLVCKGSGFTFSSFNMFWVRQAPGKGLEWVAGVGKDGGTGYGAAVDGRATISKDNGQSTLRLQLNNLRAEDTGTYYCAKAAGGCSYGWCGSYVGDIDAWGHGTEVIVSS VL: ASTQPSSVSANPGEAVKITCSGGSGSYYGWYQQKSPGSAPVTVIYNNNQRPSDIPSRFSGSKSGSTATLTITGVQAEDEAVYFCGGYDSSTGHGGIFGAGTTLTVLG")
7.1
>>> assay_result("anti-FSTL1 antibody clone #8-1 (chicken-mouse chimeric antibody) (antibody, mouse IgG1, kappa, V domains shown) VH: AVTLDESGGGLQTPGGALSLVCKGSGFTFSSFNMFWVRQAPGKGLEWVAGIGKDGVPKYGAAVDGRATISKDNGQSTMRLQLNNLRAEDTGTYFCAKAAGGCSYDWCGIYAGDIDTWGHGTEVIVSS VL: ASTQPSSVSANPGEAVKITCSGGSGSYYGWYQQKSPGSAPVTVIYNNNQRPSDIPSRFSGSKSGSTATLTITGVQAEDEAVYFCGGYDSSSGHGGIFGAGTTLTVLG")
12.3
>>> assay_result("anti-FSTL1 antibody clone #10 (chicken-mouse chimeric antibody) (antibody, mouse IgG1, kappa, V domains shown) VH: AVTLDESGGGLQTPGGALSLVCKASGFFFFRIYDMGWVRQAPGKGLEWVAGIDDYGRYTGYGSAVKGRATISRDNGQSTVRLQLNNLRAEDTGTYYCARGAGTGCNSAGCGAYAGSIDAWGHGTEVIVSS VL: ASTQPSSVSANPGETVKLTCSGGGSRYGWYQQKSPGSAPVTVIYYNDKRPSDIPSRFSGSKSGSTATLTITGVQAEDEAVYFCGGYDGSRDAGIFGAGTTLTVLG")
6

// provenance: patent US20180021429A1
